- Test system: Plasmodium falciparum Dd2 asexual blood stage parasites
- assay comment: microbe, parasite or virus in culture
- Set-up: species or system Plasmodium falciparum Dd2 in human erythrocytes; single determination (one 11-point concentration-response curve)
- settings: Plasmodium falciparum, DD2, Erythrocyte, 72 h; read-out: AC50
readout: AC50 (µM)
Reply with just the number (in µM).

Item: CCOC(=O)C1(c2ccccc2)CCN(CCC(C#N)(c2ccccc2)c2ccccc2)CC1 | AC50: 5.31

Item: Cc1ccc(C)c(/N=N/c2nc3ccccc3n2C)c1 | AC50: 0.299

Item: CCc1nc2c(c(-c3ccc(O)cc3)n1)CCN(Cc1ccccc1C(F)(F)F)CC2 | AC50: 2.99

Item: Cc1oc(-c2ccc(Cl)cc2)nc1Cn1c(=O)cc(-c2ccccc2)c2c(C)nn(C)c21 | AC50: 9.44

Item: Oc1ccc(Cl)cc1-c1cc(C(F)(F)C(F)F)nc(-c2ccccc2)n1 | AC50: 0.841

Item: O=C(NCCc1c[nH]c2ccccc12)C(=O)Nc1cc2c3c(c1)CC(=O)N3CCC2 | AC50: 10.6

Item: O=C1N=C(NC2CCCC2)C2(CCN(CC3CC3)C2)N1c1cc(F)cc(F)c1 (stereo not shown) | AC50: 1.5

Item: COc1ccc(-c2cc3ccc(O)c(CN4CCCC(C)C4)c3oc2=O)cc1 (stereo not shown) | AC50: 2.37

Item: CC1CCCN(Cc2c(O)ccc3c(=O)c(-c4ccc(Cl)cc4)c(C(F)(F)F)oc23)C1 (stereo not shown) | AC50: 0.841

Item: Cc1ncsc1CN1CCCN(Cc2ccncc2)C(c2ccccc2)CC(=O)NCC1 (stereo not shown) | AC50: 8.41

Item: COc1cc2c(cc1OC)C(COc1ccc3c(C)cc(=O)oc3c1)N(C(=O)c1ccccc1C)CC2 (stereo not shown) | AC50: 15

Item: CN(C)Cc1cc(C[C@@H]2C[C@H](NCc3ccccc3O)C2(C)C)no1 | AC50: 17.2

Item: COc1ccc(C(=O)N[C@@H]2CN(Cc3cccc(OC)c3)CCC[C@H]2O)cc1 | AC50: 10.9

Item: Cc1noc(C)c1-c1cc2cc(CN(C)C)oc2c(NCCOc2ccccc2)n1 | AC50: 15.3

Item: COCCN1C(=O)c2ccccc2C(C(=O)Nc2nc3ccccc3[nH]2)C12CCCC2 (stereo not shown) | AC50: 4.22

Item: CCc1ccc(-c2nn(CC(=O)NC3CCCCC3)c3c2cnc2ccc(OC)cc23)cc1 | AC50: 9.44
